Value source: patent US10669242B2

molecular target: recombinant glucosyltransferase domain of C. difficile Toxin B/TcdB (Clostridioides difficile, UniProt P18177); construct: 6-His (C); purchased R&D Systems 6246-GT; assay: biochemical
Sequence (P18177 1-543): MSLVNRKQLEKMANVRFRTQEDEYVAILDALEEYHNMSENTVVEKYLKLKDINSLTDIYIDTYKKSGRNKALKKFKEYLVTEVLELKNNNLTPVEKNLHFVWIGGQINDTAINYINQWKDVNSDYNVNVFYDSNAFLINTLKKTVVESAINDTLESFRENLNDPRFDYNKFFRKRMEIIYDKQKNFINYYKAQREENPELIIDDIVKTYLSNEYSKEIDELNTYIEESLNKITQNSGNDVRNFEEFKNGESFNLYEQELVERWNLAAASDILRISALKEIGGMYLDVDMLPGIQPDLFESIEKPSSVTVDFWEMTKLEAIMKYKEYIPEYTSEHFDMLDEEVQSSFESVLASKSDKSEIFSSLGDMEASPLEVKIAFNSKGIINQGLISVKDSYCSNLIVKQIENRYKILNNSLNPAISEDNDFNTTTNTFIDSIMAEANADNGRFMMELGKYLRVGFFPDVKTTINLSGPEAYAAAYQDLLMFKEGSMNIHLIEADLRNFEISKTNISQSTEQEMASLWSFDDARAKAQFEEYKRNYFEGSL
pIC50: −log10 of the molar value.
Item-by-item account of pIC50

Use these answered entries as a reference point.
Entry O=C(Nc1ccccn1)c1ccc(CN2C(=O)c3ccc(Cl)cc3NC(=O)[C@H]2Cc2cccc(Cl)c2)cc1 [Example 4aa] ; pIC50 = > 7.00

Quick note, pIC50 for O=C(O)c1ccc(CN2C(=O)c3ccc(Cl)cc3NC(=O)[C@H]2Cc2ccc(O)cc2)cc1 [Example 2d] landed at 5.00 to 6.00

pIC50 for O=C1Nc2cc(Cl)ccc2C(=O)N(Cc2ccc3c(Nc4ccccn4)nccc3c2)[C@@H]1Cc1ccccn1 [Example 49e] is > 7.00

Documented pIC50 of O=C(Nc1ccccn1)c1ccc(CN2C(=O)c3ccccc3NC(=O)[C@H]2Cc2cccnc2)cc1 [Example 35g] : 6.00 to 7.00

Reported pIC50 for COc1ccc(C[C@@H]2C(=O)Nc3cc(Cl)ccc3C(=O)N2Cc2ccc(C(=O)Nc3ccccn3)cc2)cc1 [Example 35d] was 6.00 to 7.00

Others:
Given item N#Cc1ccc(NC(=O)c2ccc(CN3C(=O)c4ccc(Cl)cc4NC(=O)[C@H]3Cc3ccccn3)cc2Cl)nc1 [Example 5au] , the value recorded as its pIC50 is > 7.00

Recorded pIC50 (compound O=C(O)c1ccc(CN2C(=O)c3ccc(Cl)cc3NC(=O)[C@H]2Cc2ccccn2)cc1Cl [Example 7a] ): 6.00 to 7.00
